Origin of the recorded values: patent US20220017615A1

biological target: T1, human CD47, full length, on transfected cells (human, UniProt Q08722 19-323); assay: FACS CHOK1-hCD47; Ab 8 nM
T1 construct: whole, on cells; also called CHOK1-hCD47
Field: mean fluorescence intensity. Provide a value for each of the binders that follow.

Consider the following illustrative entries.
stdin: Dear colleague, I am looking for the recorded mean fluorescence intensity of the following binder: 25E3B5 (antibody, V domains shown, Murine hybridoma antibody purified on protein G) VH: QVQLQQPGTALVRPGSSVKLSCKASGYTFTSYWMHWVRQRPIKGLEWIGNIDPSDSETHYNQRFKDKVTLTVDKSSNTAYMQLSSLTSEDSAVYYCARWKYHGIGAMDYWGQGTSVTVSS VL: DVQITQSPSYLAASPGETVTISCRTNRNISKFLAWYQEKPGKTNKLLIYSGSTLHSGIPSRFSGSGSGTDFTLTISRLEPEDFAMYYCQQHNEYPWSFGGGTKLEIK
stdout: 7020

stdin: Dear colleague, I am looking for the recorded mean fluorescence intensity of the following binder: 54G8G6 (antibody, V domains shown, Murine hybridoma antibody purified on protein G) VH: QVQLQQPGADLVKPGASVKMSCKASGYTFTSYWIIWVKQRPGQGLEWIGDINPGRGSPNYNEKFKRKATLTVDTSSSTAYMQLSSLTSEDSAVYYCVRGGLRRFDHWGQGTLVTVSA VL: ENVLTQSPAIMSASPGEKVTMTCRASSSVSSSYLHWYQQKSGASPKLWIYSTSTLASGVPARFSGSGSGTSYSLTISSVEAEDAATYYCQQYSGYPYTFGGGTKLEIK
stdout: 13500

Hello, I would appreciate it if you could give mean fluorescence intensity for each entry below.
1. 95E2D10 (antibody, V domains shown, Murine hybridoma antibody purified on protein G) VH: QIQLQQSGPELVKPGASMKISCKASGYPFTDYYIHWVKQKPGQGLEWIGWIYPGSGNNKYNEKFKGKATLTVDTSPSTVYMQLSSLTSEDTAVYFCARRAGNYFDYWGQGTTLTVSS VL: NIVMTQSPKSMSRSVGERVTLSCRASENVRTYVFWYQQKPGLSPKLLIYGASNRYIGVPDRFTGSGSATDFTLTISSVQAEDLADYHCGQSYSYPLTFGAGTKLELK
2. 51E2F11 (antibody, V domains shown, Murine hybridoma antibody purified on protein G) VH: EVQLQQSGAELVKPGASVKLSCTASGFNIKDHYIHWMNQRTEQGLEWIGRIDPDDGETRYAPKFRGKATLTADTSSNTAYLQFSSLTSEDTAVYHCTRATTITRDWYFDVWGTGTTVTVSS VL: DIVMTQSQKFMSTSVGDRVSITCKASQNVRTSVAWYQQKPGQSPKALIYLASNRHTGIPDRFTGSGSGTDFTLTIRNVQSEDLADYFCLQHWDYPLTFGAGTKLELK
3. 132D1E5 (antibody, V domains shown, Murine hybridoma antibody purified on protein G) VH: QVQLQQPGAELVRPGSSVKLSCKASGYTFTNNWMHWVKQRPLQGLEWIGNIDPSDSETHYNQKFKDKATLTVDKSSTTAYIQLSSLTSEDSAVYYCARWRGGGRGAMDYWGQGTSVTVSS VL: DVQITQSPSYLAASPGETITINCRTSKNISKFLAWYQEKPGKTNKLLIYSGSTLQSGIPSRFSGSGSGTDFTLTISNLEPEDFAMYYCQQHNEYPWTFGRGTKLEIK
4. 4D10B11 (antibody, V domains shown, Murine hybridoma antibody purified on protein G) VH: QVQLQQSGPELVKPGASVKISCKASGYSFTSYYIHWVKQRPGQGLEWIGWIYPGSGNTKYNEKFKGKATLTADTSSSTADMQLSSLTSEDSAVYYCARRGDWYFDVWGTGTTVTVSS VL: DIVMSQSPSSLVVSVGEKVTMNCKSSQSLLFSGNQKSSLAWYQQKPGQSPKLLIYWASTRESGVPDRFTGSGSGTDFTLIISTVKAEDLAVYSCQQYYSYPLTFGAGTKLELK
5. 20H4G5 (antibody, V domains shown, Murine hybridoma antibody purified on protein G) VH: QVQLQQPGAELVRPGSSVRLSCVTSGYTFTSHWMHWVKQGPIKGLEWIGNIDPSDSETHYNQKFKDKATLTVDKSSSTAYMQLSRLTSDDSAVYYCARWRHLGIGAMDYWGQGTSVIVSS VL: DVQITQSPSYLAASPGETITINCRASKNISKFLAWYQAKPGKSNNLLIYSGSTLQSGIPSRFSGSGSGTDFTLTISRLEPEDFAMYYCQQHNEYPWTFGGGTKLEIK

stdout:
12300
12700
6310
8450
8470
